target: CFTR (Homo sapiens); construct: endogenous in cells; host or cells: T84 human colonic cells (ECACC); experiment: T84 assay (FLIPR membrane potential dye, forskolin/IBMX-stimulated CFTR channel activity); type: cell-based; conditions: imidazole and triazole-containing compounds (Tables 13, 14, 14′), read-out: IC50 (μM) (T84 assay)
Sequence (P13569 whole entry): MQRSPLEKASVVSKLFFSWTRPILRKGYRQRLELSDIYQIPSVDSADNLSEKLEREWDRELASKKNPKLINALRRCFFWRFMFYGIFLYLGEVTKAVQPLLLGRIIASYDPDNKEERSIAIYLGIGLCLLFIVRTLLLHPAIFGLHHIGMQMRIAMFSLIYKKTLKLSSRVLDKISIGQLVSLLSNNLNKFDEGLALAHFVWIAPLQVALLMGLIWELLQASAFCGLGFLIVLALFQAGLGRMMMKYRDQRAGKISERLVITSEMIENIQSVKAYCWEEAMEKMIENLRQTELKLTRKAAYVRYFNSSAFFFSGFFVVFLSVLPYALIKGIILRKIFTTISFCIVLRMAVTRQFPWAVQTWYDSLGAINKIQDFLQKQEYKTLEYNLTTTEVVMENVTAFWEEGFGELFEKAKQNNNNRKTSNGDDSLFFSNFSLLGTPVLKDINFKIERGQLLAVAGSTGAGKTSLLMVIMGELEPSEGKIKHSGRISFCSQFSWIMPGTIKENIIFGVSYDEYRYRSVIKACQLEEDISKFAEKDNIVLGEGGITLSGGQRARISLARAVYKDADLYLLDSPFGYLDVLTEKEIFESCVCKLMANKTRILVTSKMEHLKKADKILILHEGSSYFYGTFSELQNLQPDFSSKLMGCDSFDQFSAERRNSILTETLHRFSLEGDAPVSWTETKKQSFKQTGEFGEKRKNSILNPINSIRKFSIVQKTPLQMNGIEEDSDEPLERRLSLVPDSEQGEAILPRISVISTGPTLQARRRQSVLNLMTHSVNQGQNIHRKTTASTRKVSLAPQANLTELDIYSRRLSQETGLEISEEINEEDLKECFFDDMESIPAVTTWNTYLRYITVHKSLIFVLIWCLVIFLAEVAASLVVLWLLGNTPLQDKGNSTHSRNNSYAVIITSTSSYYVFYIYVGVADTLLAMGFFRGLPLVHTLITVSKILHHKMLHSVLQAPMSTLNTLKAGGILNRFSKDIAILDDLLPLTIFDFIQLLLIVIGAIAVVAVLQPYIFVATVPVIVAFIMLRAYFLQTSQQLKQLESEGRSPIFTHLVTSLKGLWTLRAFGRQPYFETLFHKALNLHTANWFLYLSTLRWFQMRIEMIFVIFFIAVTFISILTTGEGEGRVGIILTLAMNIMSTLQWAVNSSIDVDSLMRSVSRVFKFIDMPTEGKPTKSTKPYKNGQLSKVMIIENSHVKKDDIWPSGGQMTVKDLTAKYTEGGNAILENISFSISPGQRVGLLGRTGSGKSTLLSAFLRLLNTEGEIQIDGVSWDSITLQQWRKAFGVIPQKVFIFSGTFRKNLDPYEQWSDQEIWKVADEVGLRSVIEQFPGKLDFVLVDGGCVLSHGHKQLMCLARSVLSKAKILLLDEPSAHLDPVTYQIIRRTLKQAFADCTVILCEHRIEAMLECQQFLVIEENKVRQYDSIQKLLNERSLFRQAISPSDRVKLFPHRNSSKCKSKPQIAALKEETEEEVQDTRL
Catalogue of compounds with associated IC50
Give just the number in µM; leave the unit off.

Reference set (3 entries):
[[record]]
compound = "Oc1c(Cl)cc(-n2cnc(C(O)(c3ccc(F)c(F)c3)c3ccc(F)c(F)c3)n2)cc1Cl [55i]"
unit_descriptor = "µM"
endpoint_result = 17.2

[[record]]
compound = "CN(Cc1ccc(OC(F)(F)F)cc1)C(=O)c1ncn(-c2cc(Cl)c(O)c(Cl)c2)n1"
unit_descriptor = "µM"
endpoint_result = 15.7

[[record]]
compound = "CCN(Cc1ccc(C(C)(C)C)cc1)C(=O)c1ncn(-c2cc(Cl)c(O)c(Cl)c2)n1 [88i]"
unit_descriptor = "µM"
endpoint_result = 0.75


Now consider the entry below.
The measured IC50 associated with CC(C)N(Cc1ccc(Oc2ccccc2)cc1)C(=O)c1ncn(-c2cc(Cl)c(O)c(Cl)c2)n1 [95i] reads 2.63

----------
molecular target: CFTR (Homo sapiens); construct: endogenous in cells; host or cells: T84 human colonic cells (ECACC); test: T84 assay (FLIPR membrane potential dye, forskolin/IBMX-stimulated CFTR channel activity); type: cell-based; conditions: oxadiazole-containing compounds (a series), average of at least 2 runs unless annotated n = 1, read-out: IC50
measurement.type: IC50 (µM)
Give just the number in µM; leave the unit off.

Reference set (3 entries):
[[record]]
compound = "O=C(c1noc(-c2cc(Cl)c(O)c(Cl)c2)n1)N1CCC(Cc2ccccc2)CC1 [78a]"
target_entity = "CFTR (Homo sapiens)"
unit_descriptor = "µM"
endpoint_result = 11.2

[[record]]
compound = "O=C(NCc1cccc(OC(F)(F)F)c1)c1noc(-c2cc(Br)c(O)c(Br)c2)n1 [65a]"
target_entity = "CFTR (Homo sapiens)"
unit_descriptor = "µM"
endpoint_result = 1.53

[[record]]
compound = "O=C(NCc1cccc(OC(F)F)c1)c1noc(-c2cc(Cl)c(O)c(Cl)c2)n1 [163a]"
target_entity = "CFTR (Homo sapiens)"
unit_descriptor = "µM"
endpoint_result = 11.5


Now consider the entry below.
The measured IC50 associated with CC(C)(C)ONC(=O)COc1c(Br)cc(-c2noc(C(=O)N3CCC(Cc4ccccc4)CC3)n2)cc1Br [205a] reads 23.1

----------
Catalogue of molecules with associated IC50
Biological target: CFTR (Homo sapiens)
Construct: endogenous in cells; host or cells: T84 human colonic cells (ECACC)
Test: T84 assay (FLIPR membrane potential dye, forskolin/IBMX-stimulated CFTR channel activity)
Assay type: cell-based
Conditions: oxadiazole-containing compounds (a series), average of at least 2 runs unless annotated n = 1, read-out: IC50
Method: For example, Human colonic T84 cells can be acquired from the European Collection of Cell Cultures (ECACC) and grown in standard culture conditions as described by the supplier. […] T84 cells are incubated with the FLIPRRed membrane potential dye for 45 minutes in the presence and absence of test compound before being transferred to a commercially available fluorescence imaging plate reader (FLIPR384, Molecular Devices Corporation). […]
Give just the number in µM; leave the unit off.

Reference set (10 entries):
[[record]]
molecule = "O=C(c1noc(-c2cc(Br)c(O)c(Br)c2)n1)N1CCC(Cc2ccccc2)CC1 [66a]"
endpoint_result = 11.7

[[record]]
molecule = "O=C(c1nc(-c2cc(Br)c(O)c(Br)c2)no1)N1CCN(c2ccc(Cl)cc2F)CC1 [19a]"
endpoint_result = 7.1

[[record]]
molecule = "O=C(O)COc1c(Cl)cc(-c2nc(C(=O)NCc3ccc(Oc4ccccc4)cc3)no2)cc1Cl [107a]"
endpoint_result = 19.2

[[record]]
molecule = "CC(NC(=O)c1nc(-c2cc(Cl)c(O)c(Cl)c2)no1)c1ccc(Br)cc1 (centres unmarked) [143a]"
endpoint_result = 5.15

[[record]]
molecule = "O=C(Nc1ccc(Oc2ccc(C(F)(F)F)cc2)cc1)c1nc(-c2cc(Br)c(O)c(Br)c2)no1 [34a]"
endpoint_result = 18.3

[[record]]
molecule = "O=C(c1nc(-c2cc(Cl)c(O)c(Cl)c2)no1)N(Cc1cccc(C(F)(F)F)c1)Cc1cccc(C(F)(F)F)c1 [101a]"
endpoint_result = 6.71

[[record]]
molecule = "O=C(NCc1ccc(Cl)cc1)c1nc(-c2cc(Cl)c(O)c(Cl)c2)no1 [128a]"
endpoint_result = 12.8

[[record]]
molecule = "O=C(NCc1ccc(Oc2cccc(OC(F)(F)F)c2)cc1)c1nc(-c2cc(Cl)c(O)c(Cl)c2)no1 [190a]"
endpoint_result = 11

[[record]]
molecule = "CC(C)(C)CCNC(=O)c1nc(-c2cc(Br)c(O)c(Br)c2)no1 [105a]"
endpoint_result = 23.1

[[record]]
molecule = "CC(C)(C)C(=O)CN(Cc1cccc(C(F)(F)F)c1)C(=O)c1nc(-c2cc(Cl)c(O)c(Cl)c2)no1 [91a]"
endpoint_result = 2.15


The measured IC50 associated with O=C(NCc1ccc(F)c(C(F)(F)F)c1)c1nc(-c2cc(Cl)c(O)c(Cl)c2)no1 [146a] reads 11.2

The measured IC50 associated with CN(Cc1ccc(Oc2ccccn2)cc1)C(=O)c1nc(-c2cc(Cl)c(O)c(Cl)c2)no1 [173a] reads 12.4

The measured IC50 associated with C=CCN(Cc1ccc(F)c(F)c1)C(=O)c1nc(-c2cc(Cl)c(O)c(Cl)c2)no1 [170a] reads 3.62

The measured IC50 associated with CC(C)(C)C(=O)CN(Cc1ccc(F)c(F)c1)C(=O)c1nc(-c2cc(Cl)c(O)c(Cl)c2)no1 [152a] reads 8.88

The measured IC50 associated with CC(C)Oc1ccc(Oc2ccc(CNC(=O)c3nc(-c4cc(Cl)c(O)c(Cl)c4)no3)cc2)cc1Cl [180a] reads 10.3

The measured IC50 associated with O=C(NCc1cccc(-c2ncccn2)c1)c1nc(-c2cc(Cl)c(O)c(Cl)c2)no1 [147a] reads 29.9

The measured IC50 associated with O=C(NCc1cc(F)cc(F)c1)c1nc(-c2cc(Cl)c(O)c(Cl)c2)no1 [137a] reads 24.4
